Entry source: patent US20250313625A1

Biological target: T1, mFc tagged human LAG3 ECD recombinant protein (human, UniProt P18627 23-450)
T1 construct: extracellular domain; purchased from Biointron; not shown: mouse IgG Fc (mFc) tag
T1 sequence (looked up): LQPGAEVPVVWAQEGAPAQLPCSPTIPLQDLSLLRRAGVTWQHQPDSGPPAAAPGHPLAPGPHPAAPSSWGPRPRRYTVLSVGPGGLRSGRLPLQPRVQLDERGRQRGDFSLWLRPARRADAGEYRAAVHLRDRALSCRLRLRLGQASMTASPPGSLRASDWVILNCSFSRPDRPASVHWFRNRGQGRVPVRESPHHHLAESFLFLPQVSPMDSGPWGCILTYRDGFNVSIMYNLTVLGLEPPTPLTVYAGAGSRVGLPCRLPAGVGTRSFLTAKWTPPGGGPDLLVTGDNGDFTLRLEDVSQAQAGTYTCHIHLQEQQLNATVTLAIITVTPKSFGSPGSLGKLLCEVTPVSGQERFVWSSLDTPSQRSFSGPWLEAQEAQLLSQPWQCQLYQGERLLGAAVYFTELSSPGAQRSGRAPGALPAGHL
Experiment: competitive FACS: mFc-LAG3 ECD binding to Raji cells (MHC II)
Method: Activity of the purified chimeric antibodies to block LAG3 and MHC II interaction was determined by competitive FACS assay. […] After washing, dye labeled anti-mouse Fc 2nd antibody (Sigma) was added and incubated at 37° C. for 1 hour. Fluorescence intensity was detected.
Measure Name: IC50 (nM)
Your answer is read as nM, so omit the unit and give the number.

| Binder | IC50, nM |
| --- | --- |
| 057c (antibody, human IgG4, V domains shown, human IgG4 S228P / kappa chimeric antibody; also called chimeric antibody 057; not shown: human kappa light chain constant region (pcDNA3.4-hIgGk vector)) VH: QVQLQQSGAELARPGASVKLSCKASGFSFTSYGINWVKQRTGQGLEWIGEIYPRSGNTYYNEKLKGEATLTADRSSSTAYMELRSLTSEDSAVYFCARGGTYDGYYYAMDYWGQGTSVTVSS VL: NIVLTQSPASLAVSLGQRATISCRASESVDNFGSSFMHWYQQKPGQAPKLLIYRASNLESGIPARFGGSGSGTDFTLTIDPVETDDVATYYCQQVNKDPRTFGGGTKLEIK | 2.5 |
| 033c (antibody, human IgG4, V domains shown, human IgG4 S228P / kappa chimeric antibody; also called chimeric antibody 033; not shown: human kappa light chain constant region (pcDNA3.4-hIgGk vector)) VH: EVQLQQSGAELVRPGASVKLSCTASDFNIKDDYIHWVKQRPEQGLEWIGWIDLENGDTEYASKFQGKATITADTSSNTAYLQLSSLTSEDTAVYYCTTKGSHWGQGTLVTVSA VL: DVVMTQIPLSLPVSLGDQASISCRSSQSLVYSNGNTYLNWYLQKPGQSPKLLIHKVSNRFSGVPDRFSGSGSGTDFTLKISRVEAEDLGVYFCSQSTHVPYTFGGGTKLEIR | 3.9 |

Qu. Look up IC50: TSR-033 (antibody, V domains shown) VH: EVQLVQSGAEVKKPGATVKISCKASGFSIKDDYIHWVQQAPGKGLEWMGWIDAMNDDSQYSSKFQGRVTITVDTSTNTAYMKLSSLRSEDTAVYYCTYAFGGYWGQGTTVTVSS VL: DIVMTQTPLSLSVTPGQPASISCRSSQSLVHSDSNTYLHWYLQKPGQSPQLLIYLVSNRFSGVPDRFSGSGSGTDFTLKISRVEAEDVGVYFCGQSTHVPYAFGGGTKVEIK
Ans. 12.4

Qu. Can you check 021c (antibody, human IgG4, V domains shown, human IgG4 S228P / kappa chimeric antibody; also called chimeric antibody 021; not shown: human kappa light chain constant region (pcDNA3.4-hIgGk vector)) VH: DIQLQESGPGLVKPSQSLSLTCSVTGYSITSGYYWNWIRQFPGNKLEWMGDISYDGGNNYNPSLKNRISITRDTSKNQFFLKLNSVTTEDTATYYCARDITLTGAMDYWGQGTSVTVSS VL: DIVLTQSPASLAVSLGQRATISCRASESVDNYGISFMHWYQQRPGQPPKLLIYRASNLESGIPARFSGSGSRTDFTLTINPVETDDVATYYCQQSNKDPYTFGGGTKLEIK next?
Ans. 4.2

Qu. Can you check 027c (antibody, human IgG4, V domains shown, human IgG4 S228P / kappa chimeric antibody; also called chimeric antibody 027; not shown: human kappa light chain constant region (pcDNA3.4-hIgGk vector)) VH: EVKILQSGGGLVQPGGSLKLSCAASGIDFSRYWMSWVRRTPGKGLEWIGEINPDSSTINYAPSLKDKFIISRDNAKNTLYLQMSKVRSEDTALYYCARLGIIPTYHYGSSGYYYAMDYWGQGTSVTVSS VL: DVLMTQTPLSLPVSLGDRASISCRSSQTIVHGNGHTSLEWYLQKPGQSPQLLIYKVSNRFSGVPDRFSASGSGTDFTLTISRVEAEDLGVYYCFQVSHVPYTFGGGTKLEIK next?
Ans. 4.5
